Where do these numbers come from? They come from PubChem BioAssay (NCI).

Test system: HT29 colon
test details: NCI tumour cell line growth inhibition, 48 h; in the data active = GI50 below about 0.43 µM; inactive = the rest
Form entry, call: pick from t = active, f = inactive

So what was the verdict on O=C1C2C(C(=O)N1c1ccc(OCc3ccccc3)cc1)C1c3ccccc3C2C2CCCCN21 (centres undefined) in this test?
f

So what was the verdict on O=C(CCl)c1ccc([N+](=O)[O-])o1 in this test?
f

So what was the verdict on O=C(CCN1CCCC1)Nc1ccc2c(NCc3ccc(F)cc3)c3ccccc3nc2c1 in this test?
t

So what was the verdict on COc1cccc(OC(=O)c2ccccc2Nc2ccnc(C(F)(F)F)c2)c1 in this test?
f

* * *

Can you tell me TGI for the items I'm about to list?
System: MALME-3M melanoma
test details: NCI tumour cell line growth inhibition, 48 h
Field: numeric (µM). Do not append units.

Which value of TGI has been reported for CCOC(=O)c1nc2ccc(C(F)(F)F)cc2nc1NCc1ccc(Cl)c(Cl)c1 in the records?
99.1

Which value of TGI has been reported for CCOC(=O)c1c2c(n(CC(C)C)c1C)-c1nc[nH]c1C(=O)C2=O in the records?
36.6

Which value of TGI has been reported for C=C1C(=O)OC2CC3(C)C=CC(=O)C(=C)C3CC12 (configuration not stated) in the records?
4.02

Which value of TGI has been reported for CC[C@](C)(O)C(=O)O[C@H]1C(=O)O[C@@H]2C[C@H]3C(C)=CC(=O)[C@@H](O)[C@]3(C)[C@H]3[C@@]4(O)OC[C@]32[C@@H]1[C@@H](C)[C@H]4O in the records?
0.137

Which value of TGI has been reported for Cc1nc2sc(CCl)nn2c(=O)c1Cl in the records?
24.9
